biological target: Plasmodium vivax (Pv) NMT (Plasmodium vivax (strain Salvador I), UniProt A5K1A2); experiment: biochemical
Sequence (A5K1A2 1-410): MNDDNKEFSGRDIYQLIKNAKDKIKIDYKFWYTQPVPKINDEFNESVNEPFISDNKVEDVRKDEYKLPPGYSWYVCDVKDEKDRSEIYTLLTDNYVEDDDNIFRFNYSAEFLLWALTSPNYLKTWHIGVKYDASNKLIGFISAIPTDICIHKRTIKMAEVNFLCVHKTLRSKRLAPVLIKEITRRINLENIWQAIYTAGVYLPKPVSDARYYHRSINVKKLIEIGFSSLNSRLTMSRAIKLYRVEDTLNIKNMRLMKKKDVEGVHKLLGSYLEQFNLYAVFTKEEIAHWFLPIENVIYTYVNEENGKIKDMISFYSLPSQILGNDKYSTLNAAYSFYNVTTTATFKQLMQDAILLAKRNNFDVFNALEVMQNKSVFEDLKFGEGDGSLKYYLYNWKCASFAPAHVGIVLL
For each record, write down the corresponding pIC50.
pIC50 field: float, defined as -log10 of concentration (mol/L).

input: State its pIC50 for this molecule: `CC(C)(NC(=O)C1CN(c2nc(N3CCCNCC3)ncc2F)C1)c1cnc2ccccn12`
output: 7.85

input: Annotate the molecule `C[C@H]1CN(c2ncc(Cl)c(N3CC(C(=O)NCc4cnc5ccccn45)C3)n2)CCN1` with its measured pIC50.
output: 7.43

input: In one line, give reported pIC50 of the entry `C[C@H]1CN(c2ncc(F)c(N3CC(C(=O)NC(C)(C)c4cnc5ccccn45)C3)n2)CCN1` .
output: 7.85

input: Kindly indicate its recorded pIC50. Item: CC1CN(c2ncc(F)c(N3CC(C(=O)NCc4cnc5ccccn45)C3)n2)CCN1 (stereo not shown)
output: 7.02

---

biological target: Human NMT1 (HsNMT1) (Homo sapiens); experiment: biochemical
Sequence (P30419 whole entry, looked up): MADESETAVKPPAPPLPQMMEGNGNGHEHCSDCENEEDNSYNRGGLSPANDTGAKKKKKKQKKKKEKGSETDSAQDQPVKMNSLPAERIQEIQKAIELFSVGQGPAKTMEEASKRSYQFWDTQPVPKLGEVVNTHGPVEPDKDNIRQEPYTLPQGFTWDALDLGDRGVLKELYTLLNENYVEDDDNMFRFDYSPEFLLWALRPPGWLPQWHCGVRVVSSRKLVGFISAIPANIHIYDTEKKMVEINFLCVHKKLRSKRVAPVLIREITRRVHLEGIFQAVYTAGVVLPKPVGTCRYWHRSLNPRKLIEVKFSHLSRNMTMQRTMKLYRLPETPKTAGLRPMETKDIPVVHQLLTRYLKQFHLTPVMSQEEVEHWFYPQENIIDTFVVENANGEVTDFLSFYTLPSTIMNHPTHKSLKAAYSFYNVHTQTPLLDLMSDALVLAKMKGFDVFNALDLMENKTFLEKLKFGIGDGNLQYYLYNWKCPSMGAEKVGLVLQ
Would you kindly list pIC50 for each of these compounds?
# pIC50 is unitless: minus log10 of the molar concentration; print number only

input: Give recorded pIC50. CN(C(=O)C1CN(c2nc(N3CCCC(N)CC3)ncc2Cl)C1)C(C)(C)c1cnc2ccccn12 (stereo not shown) [Example 131]
output: 6.75

input: Quote pIC50 reported for CCC1CN(c2ncc(Cl)c(N3CC(C(=O)NC(C)(C)c4cnc5ccccn45)C3)n2)CCN1 (stereo not shown) [Example 137] please.
output: 8.52

input: Tell me its pIC50 given CC1CN(c2ncc(Cl)c(N3CC(C(=O)NCc4cnc5ccccn45)C3)n2)CCN1 (stereo not shown) [Example 29] as the entry.
output: 7.10

input: Please list pIC50 recorded for the compound CC1CN(c2ncc(F)c(N3CC(C(=O)NC(C)(C)c4cnc5ccccn45)C3)n2)C[C@H](C)N1C (stereo partly shown) [Example 96]
output: 7.51

input: Supply recorded pIC50 for C[C@@H]1CN(c2ncc(F)c(N3CC(C(=O)NC(C)(C)c4cnc5ccccn45)C3)n2)C[C@H](C)N1 [Example 44] here.
output: 6.92

input: Please supply the value of reported pIC50 for the item C[C@H]1CN(C)CCN1c1ncc(Cl)c(N2CC(C(=O)NC(C)(C)c3cnc4ccccn34)C2)n1 [Example 2]
output: 8.57

input: Indicate the recorded pIC50 value for this compound: C[C@@H]1CN(c2ncc(Cl)c(N3CC(C(=O)NC(C)(C)c4cnc5ccccn45)C3)n2)C[C@@H](C)N1C [Example 92]
output: 7.26

input: For the compound Cc1cc2nc(N3CCCN(C)CC3)nc(N3CC(C(=O)NC(C)(C)c4cnc5ccccn45)C3)c2s1 [Example 116] , give its measured pIC50 value.
output: 8.22

input: Tell me measured pIC50 for Cc1ccc2ncc(C(C)(C)NC(=O)C3CN(c4nc(N5CCN(C)[C@H](C)C5)ncc4Cl)C3)n2c1 [Example 98] please.
output: 8.27

input: Determine from records and report pIC50 for C[C@@H]1CN(c2ncc(Cl)c(N3CC(C(=O)NC(C)(C)c4cnc5ccccn45)C3)n2)C[C@H](C)N1C [Example 89]
output: 7.57

input: Dear colleague, please send me the reported pIC50 for C[C@@H]1CNCCN1c1ncc(Cl)c(N2CC(C(=O)NC(C)(C)c3cnc4ccccn34)C2)n1 [Example 141] when you can.
output: 8.40

input: Check the records and state pIC50 for CN1CCCN(c2nc(N3CC(C(=O)NC(C)(C)c4cnc5ccccn45)C3)c3ccsc3n2)CC1 [Example 113]
output: 8.30

input: Using the record for COCC1CN(c2ncc(Cl)c(N3CC(C(=O)NC(C)(C)c4cnc5ccccn45)C3)n2)CCN1C (stereo not shown) [Example 80] , state its measured pIC50.
output: 7.64

input: State its pIC50: CN(C(=O)C1CN(c2nc(N3CCC(N)CC3)ncc2Cl)C1)C(C)(C)c1cnc2ccccn12 [Example 128]
output: 6.63

input: Please look at this compound and report its pIC50: Cc1nc2ccccn2c1CNC(=O)C1CN(c2nc(N3CCCNCC3)ncc2Cl)C1 [Example 18]
output: 7.70

input: Supply recorded pIC50 for COc1cnc(N2CCN(C)[C@@H](C)C2)nc1N1CC(C(=O)NC(C)(C)c2cnc3ccccn23)C1 [Example 85] here.
output: 8.20

input: Name the recorded pIC50 of the compound listed here: CCN(C(=O)C1CN(c2nc(N3CCNCC3)ncc2Cl)C1)C(C)(C)c1cnc2ccccn12 [Example 136]
output: 8.15

input: Please give measured pIC50 of the following entry: CCN(C(=O)C1CN(c2nc(N3CCNC[C@@H]3C)ncc2Cl)C1)C(C)(C)c1cnc2ccccn12 [Example 145]
output: 8.52

input: Provide only the value of recorded pIC50 for CC(NC(=O)C1CN(c2nc(N3CCCNCC3)ncc2Cl)C1)c1cnc2ccccn12 (stereo not shown) [Example 10]
output: 8.10

input: Output measured pIC50 for this item: Cc1nc2ccccn2c1CNC(=O)C1CN(c2nc(N3CC4CNC4C3)ncc2F)C1 (stereo not shown) [Example 13]
output: 6.42

input: Determine its reported pIC50: C[C@H]1CN(c2ncc(Cl)c(N3CC(C(=O)NC(C)(C)c4cnc5ccccn45)C3)n2)CCN1 [Example 37]
output: 8.10

input: Provide only the value of recorded pIC50 for C[C@H]1CN(c2ncc(F)c(N3CC(C(=O)NC(C)(C)c4cnc5ccccn45)C3)n2)CCN1C [Example 82]
output: 7.00

input: // Input: CC(C)(NC(=O)C1CN(c2nc(N3CCCNCC3)nc3ccsc23)C1)c1cnc2ccccn12 [Example 123] . Output its pIC50 only.
output: 8.10

input: Determine from records and report pIC50 for Cc1ccc2ncc(C(C)(C)NC(=O)C3CN(c4nc(N5CCN(C)[C@H](C)C5)ncc4F)C3)n2c1 [Example 97]
output: 7.59

input: Quick one: give measured pIC50 for C[C@H]1CN(c2ncc(Cl)c(N3CC(C(=O)N(C)C(C)(C)c4cnc5ccccn45)C3)n2)CCN1C [Example 140]
output: 6.84

input: Return the recorded pIC50 value; entry: CC1CN(c2ncc(F)c(N3CC(C(=O)NC(C)(C)c4cnc5ccccn45)C3)n2)C[C@H](C)N1 (stereo partly shown) [Example 49]
output: 7.85

input: Provide measured pIC50 value, entry: CN(C(=O)C1CN(c2nc(N3CCNC4(CC4)C3)ncc2Cl)C1)C(C)(C)c1cnc2ccccn12 [Example 130]
output: 7.27

input: // fetch pIC50 given entry CN(c1ncc(Cl)c(N2CC(C(=O)NC(C)(C)c3cnc4ccccn34)C2)n1)C1CCNC1 (stereo not shown) [Example 41]
output: 7.72

input: Return value of pIC50 for input CN(Cc1cnc2ccccn12)C(=O)C1CN(c2nc(N3CCCNCC3)ncc2Cl)C1 [Example 17] , no commentary.
output: 6.44

input: Give the reported value of pIC50 for this record: Cc1cc2c(N3CC(C(=O)NC(C)(C)c4cnc5ccccn45)C3)nc(N3CCCN(C)CC3)nc2s1 [Example 117]
output: 8.22

input: Give the reported pIC50 for this compound. CC(NC(=O)C1CN(c2nc(N3CCCNCC3)ncc2F)C1)c1cnc2ccccn12 (stereo not shown) [Example 9]
output: 7.10
